System: HOP-62 NSCLC
Assay: NCI-60 one-dose screen, 48 h (100 = growth as untreated, 0 = no growth, -100 = all killed)
Settings: 10 µM
The panel holds about 83,000 compounds, 20% with a hit somewhere; the sample as a whole holds those more often.

COMPOUND	growth (%)
COc1ccc2c(c1)O/C(=C\c1ccc([N+](=O)[O-])o1)C2=O	-12.4
COC(=O)[C@@H]1[C@H](O)[C@H](C)[C@H](O)[C@@](C)(O)/C=C\C=C(C)C(=O)Nc2c(C)c(OC(C)=O)c3c(c2O)C(=O)C(C)=C2OCOC(=C23)C(C)=C[C@@](C)(O)[C@H](O)[C@@H](C)[C@H]1OC(C)=O	111
Cc1cccc(C)c1NC(=O)c1sc2nc3c(cc2c1N)C(=O)CCC3	112
Cc1occc1-c1nnc(SCC(=O)c2ccc(NC(=O)CC(C)C)cc2)o1	99.6
C#Cc1ccc(-n2c(/C=C/c3ccc4ccccc4n3)nc3ncccc3c2=O)cc1	-34
CCCCCCc1cc(N=Nc2ccc(S(=O)(=O)Nc3cc(C)nc(C)n3)cc2)c(O)cc1O	107
Fc1ccc2nc(-c3nc(-c4ccccc4)n4ccccc34)[nH]c2c1	-76.2
CCCCC(CCCCCC(CCCC)NCc1ccc2c(c1)OCO2)NCc1ccc2c(c1)OCO2 (stereo unspecified)	-98.9
Nc1nc(-c2ccccc2Cl)cc(-c2ccc(Cl)cc2Cl)n1	76.2
c1ccc(C(NC2CC3CCC2C3)c2ccccc2)cc1 (stereo unspecified)	97.2
CC(=O)c1cc(Br)ccc1O	118
